B1: CPEB3 Ribozyme (parent)
chain: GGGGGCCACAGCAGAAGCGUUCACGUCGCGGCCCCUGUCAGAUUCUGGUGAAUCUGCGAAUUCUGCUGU

variants of: B1; test: self-cleavage, relative activity (ratio to wild type); higher = more cleavage; co-transcriptional
Each entry below carries its recorded self-cleavage.

>>> meas_value("G1U U49A")
0.124

For the variant C32G C45G , give its measured self-cleavage value.
0.434

For the variant G3C A16G , give its measured self-cleavage value.
0.162

For the variant C24A G58U , give its measured self-cleavage value.
0.773

For the variant A42G A59U , give its measured self-cleavage value.
0.735

For the variant C24U C54U , give its measured self-cleavage value.
0.808

For the variant G3C U64C , give its measured self-cleavage value.
0.0655

For the variant G11U A16U , give its measured self-cleavage value.
0.48

Source: the RNAGym collection of RNA variant scans (doi:10.7554/elife.80360)
